Reference source: paper PMC12040169

- assay-text: in vitro
- experimental-context: human, hela cells, % viability
reported-metric: viability at 28.5 h, 10 µM (%)
Numeric only. Scale: %

Name the recorded viability at 28.5 h, 10 µM for O=C(Nc1ccc(NC(=O)c2cc3ccccc3o2)cc1)c1ccc(-c2ccccc2)cc1 . 107

Name the recorded viability at 28.5 h, 10 µM for O=C(Cc1cc(F)cc(F)c1F)Nc1ccc2[nH]ccc2c1 . 87.4

Name the recorded viability at 28.5 h, 10 µM for O=C(O)C1C2CCC(O2)C1C(=O)NCc1ccco1 (stereo not drawn) . 96.8

Name the recorded viability at 28.5 h, 10 µM for CCCC(=O)N1CCCC1c1cc2n(n1)[C@@H](C(F)(F)F)C[C@@H](C)N2 (stereo partly drawn) . 92.4

Name the recorded viability at 28.5 h, 10 µM for CC(CCCc1ccccc1)NC(=O)c1cc2c([nH]c1=O)CCC2 (stereo not drawn) . 87.6

Name the recorded viability at 28.5 h, 10 µM for Cc1ccc(Cc2cnc(NC(=O)CN3CCCCC3)s2)cc1Cl . 84.9

Name the recorded viability at 28.5 h, 10 µM for CC(C)c1csc(NC(=O)C2CN(S(=O)(=O)c3ccc(F)cc3)C2)n1 . 120

Name the recorded viability at 28.5 h, 10 µM for C(=C\c1cccc(N2CCN(CCN3CCCC3)CC2)n1)/c1ccccc1 . 97.8

Name the recorded viability at 28.5 h, 10 µM for C[N+](C)(C)Cc1ccccc1 [CBK011977I] . 109
